Quick list: pKi per entry.
Molecular target: 72 kDa type IV collagenase (Homo sapiens)
Sequence (P08253 whole entry): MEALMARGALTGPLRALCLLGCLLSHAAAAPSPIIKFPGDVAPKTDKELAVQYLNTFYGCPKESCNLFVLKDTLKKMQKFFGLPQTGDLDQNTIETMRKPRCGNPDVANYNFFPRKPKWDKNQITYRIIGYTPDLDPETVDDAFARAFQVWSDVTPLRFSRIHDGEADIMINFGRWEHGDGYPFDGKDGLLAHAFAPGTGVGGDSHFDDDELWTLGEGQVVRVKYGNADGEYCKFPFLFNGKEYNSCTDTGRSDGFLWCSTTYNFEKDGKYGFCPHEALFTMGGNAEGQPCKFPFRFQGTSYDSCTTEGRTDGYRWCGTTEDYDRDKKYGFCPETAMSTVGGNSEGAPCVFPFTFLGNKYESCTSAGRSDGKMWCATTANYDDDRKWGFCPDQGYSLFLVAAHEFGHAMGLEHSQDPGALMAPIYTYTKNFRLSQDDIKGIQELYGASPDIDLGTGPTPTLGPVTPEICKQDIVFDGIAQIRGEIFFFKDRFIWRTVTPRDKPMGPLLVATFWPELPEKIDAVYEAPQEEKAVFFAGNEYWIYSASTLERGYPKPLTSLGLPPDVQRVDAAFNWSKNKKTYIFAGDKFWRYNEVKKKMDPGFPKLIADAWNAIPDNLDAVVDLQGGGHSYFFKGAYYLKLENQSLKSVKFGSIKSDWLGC
pKi: −log10 of the molar value.
Readout name: pKi

[[record]]
molecule = "CC(C)(C1CS1)S(=O)(=O)c1ccc(Oc2ccccc2)cc1 (stereo not drawn)"
readout_name = "pKi"
qualifier = "<"
result_value = 4.40

[[record]]
molecule = "CC1(C)SC1CS(=O)(=O)c1ccc(Oc2ccccc2)cc1 (stereo not drawn)"
readout_name = "pKi"
qualifier = "="
result_value = 5.85

[[record]]
molecule = "[O-][S+](CC1CS1)c1ccc(Oc2ccccc2)cc1 (stereo not drawn) [Sulfoxide, 4]"
readout_name = "pKi"
qualifier = "="
result_value = 5.68

